# Experimental System: T1, full-length human GIPR (GenBank NM_000164) with an N-terminal FLAG tag on HEK-293T cells (human), P48546
# T1 chain: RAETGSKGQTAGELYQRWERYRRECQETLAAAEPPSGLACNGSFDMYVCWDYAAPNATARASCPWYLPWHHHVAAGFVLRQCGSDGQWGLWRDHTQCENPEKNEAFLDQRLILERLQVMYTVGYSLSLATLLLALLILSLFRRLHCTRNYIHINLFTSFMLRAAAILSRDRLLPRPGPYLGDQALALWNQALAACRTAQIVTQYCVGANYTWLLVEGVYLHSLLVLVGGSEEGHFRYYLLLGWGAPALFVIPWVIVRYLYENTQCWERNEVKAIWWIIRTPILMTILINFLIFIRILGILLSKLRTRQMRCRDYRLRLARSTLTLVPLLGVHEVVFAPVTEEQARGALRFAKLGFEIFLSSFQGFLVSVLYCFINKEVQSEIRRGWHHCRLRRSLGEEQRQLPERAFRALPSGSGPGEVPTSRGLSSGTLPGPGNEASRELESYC
# Protocol Details: cell-based or functional assay
Numbered stars: 1 amine (or outer) side, 2 acyl side, 3 side chain; on linkers, the order of the positions; unused ones are H or OH. Square brackets hold non-standard residues; d marks the D form. Primed or numbered codes have the meaning given here. Side chains are listed from the residue outwards. Ends that are not written are not given here. * marks the point of attachment. C20 diacid = O=C(O)CCCCCCCCCCCCCCCCCCC(=O)*; γGlu = O=C(O)[C@H](CCC(=O)[*:2])N[*:1]; Iva = CC[C@](C)(N)C(=O)O; PEG3′ = not defined here; Aib = CC(C)(N)C(=O)O
Assay Endpoint: GIP EC50(pM)

INSERT INTO results (binder, assay_endpoint, recorded_value) VALUES
  ('Y[Aib]EGTFISDYSIALDR[Aib]HQ[Aib]NFVNW[Iva]LAQRPSSGAPPPK([PEG3′-PEG3′-C20 diacid])R (ends and bridges not checked) [Compound No 941]', 'GIP EC50(pM)', 0.4),
  ('Y[Aib]EGTFISDYSIALDR[Aib]HQ[Aib]NFVNW[Iva]LAQRPK([Gly-Gly-Gly-Gly-Gly-γGlu-C20 diacid])SGAPPPS (ends and bridges not checked) [Compound No. 443]', 'GIP EC50(pM)', 0.86),
  ('Y[Aib]EGTFISDYSIALDR[Aib]HQ[Aib]NFVNW[Iva]LAQRPSSGAPK([Gly-Gly-Gly-Gly-Gly-γGlu-C20 diacid])PS (ends and bridges not checked) [Compound No. 458]', 'GIP EC50(pM)', 1.31),
  ('Y[Aib]EGTFISDYSIALDR[Aib]HQ[Aib]NFVNW[Iva]LAQRPK([PEG3′-PEG3′-γGlu-Ida])SGAPPPS (ends and bridges not checked) [Compound No. 489]', 'GIP EC50(pM)', 0.96);
